The following compounds are listed with their measured cell viability (log2) values.
# System: A673/TR/shEF
# methodSummary: cell viability (LOESS-normalised, relative to median of negative controls) (log2 ratio); higher = more viable cells (less compound effect), active = hit call of the paper (over 3 MAD below the median)
# studyConditions: 0.25 µM; library screen: screen1; EWS-FLI1 expression: high (no doxycycline); treatment time: 72 h
The campaign covered roughly 3,200 compounds. About 300 (9.4%) showed activity. What follows is part of a selection rich in actives, with near analogues and random picks from the rest.

compound: CCc1cccc(C)c1N(C(=O)CCl)C(C)COC (centres undefined)
assayedTarget: A673/TR/shEF
cell viability (log2): 0.0561
//
compound: CC[S+]([O-])CCSP(=O)(OC)OC (centres undefined)
assayedTarget: A673/TR/shEF
cell viability (log2): 0.119
//
compound: CC(N)Cc1ccc(O)cc1 (centres undefined)
assayedTarget: A673/TR/shEF
cell viability (log2): 0.0594
//
compound: O=C1C=CC(=O)c2c(O)cccc21
assayedTarget: A673/TR/shEF
cell viability (log2): 0.185
//
compound: O=C(O)CNCP(=O)(O)O
assayedTarget: A673/TR/shEF
cell viability (log2): 0.0875
//
compound: CO[C@H]1[C@H](O)[C@H](O[C@H]2CC[C@@]3(C)[C@H](CC[C@@H]4[C@@H]3CC[C@]3(C)[C@@H](C5=CC(=O)OC5)CC[C@]43O)C2)O[C@@H](C)[C@@H]1O
assayedTarget: A673/TR/shEF
cell viability (log2): 0.0843
//
compound: NCC(CC(=O)O)c1ccc(Cl)cc1 (centres undefined)
assayedTarget: A673/TR/shEF
cell viability (log2): 0.0966
//
compound: CN1C2C[C@H](OC(=O)[C@H](CO)c3ccccc3)CC1[C@@H](O)C2 (some centres undefined)
assayedTarget: A673/TR/shEF
cell viability (log2): 0.0376
//
compound: CC[C@@]1(O)C(=O)OCc2c1cc1n(c2=O)Cc2cc3ccccc3nc2-1
assayedTarget: A673/TR/shEF
cell viability (log2): -2.18
//
compound: C[C@H]1C(=O)O[C@@H]2CCN3CC=C(COC(=O)[C@](C)(O)[C@]1(C)O)[C@H]23
assayedTarget: A673/TR/shEF
cell viability (log2): 0.00981
//
compound: NC1CC1c1ccccc1 (centres undefined)
assayedTarget: A673/TR/shEF
cell viability (log2): 0.107
//
compound: C[C@@]12C(=O)OC(=O)[C@]1(C)[C@H]1CC[C@@H]2O1
assayedTarget: A673/TR/shEF
cell viability (log2): 0.0474
//
compound: CO[C@H]1[C@H](O)[C@H](O[C@H]2CC[C@@]3(C=O)[C@H](CC[C@@H]4[C@@H]3CC[C@]3(C)[C@@H](C5=CC(=O)OC5)CC[C@]43O)C2)O[C@@H](C)[C@@H]1O
assayedTarget: A673/TR/shEF
cell viability (log2): -3.17
//
compound: CC(C)N(C(=O)CCl)c1ccccc1
assayedTarget: A673/TR/shEF
cell viability (log2): 0.0295
//
compound: O=C1C(Cl)=C(Cl)C(=O)C(Cl)=C1Cl
assayedTarget: A673/TR/shEF
cell viability (log2): 0.0885
//
compound: Cc1nccc2c1[nH]c1ccccc12
assayedTarget: A673/TR/shEF
cell viability (log2): 0.0742
//
compound: CC1=C(O)C(=O)C=C2C1=CC=C1[C@@]2(C)CC[C@@]2(C)[C@@H]3C[C@](C)(C(=O)O)CC[C@]3(C)CC[C@]12C
assayedTarget: A673/TR/shEF
cell viability (log2): 0.0936
//
compound: c1cncc(C2CCCCN2)c1 (centres undefined)
assayedTarget: A673/TR/shEF
cell viability (log2): 0.0408
//
compound: c1ccc2c3c([nH]c2c1)CNCC3
assayedTarget: A673/TR/shEF
cell viability (log2): 0.101
//
compound: CSc1nc(NC(C)C)nc(NC(C)C)n1
assayedTarget: A673/TR/shEF
cell viability (log2): 0.0904
//
compound: CC1(C)C2CC(=O)[C@]3(C)C(CC[C@@]4(C)[C@H](c5ccoc5)OC(=O)[C@H]5O[C@]543)[C@@]2(C)C=C[C@@H]1O (some centres undefined)
assayedTarget: A673/TR/shEF
cell viability (log2): 0.0868
//
compound: COc1cc(OC)c(OC)cc1C=O
assayedTarget: A673/TR/shEF
cell viability (log2): 0.0675
//
compound: CN(C)C(=S)SSC(=S)N(C)C
assayedTarget: A673/TR/shEF
cell viability (log2): -2.91
//
compound: CNC(=O)O/N=C/C(C)(C)SC
assayedTarget: A673/TR/shEF
cell viability (log2): 0.0387
//
compound: CCOCN(C(=O)CCl)c1c(C)cccc1CC
assayedTarget: A673/TR/shEF
cell viability (log2): 0.105
//
compound: CN1[C@@H]2CC[C@H]1CC(OC(=O)C(CO)c1ccccc1)C2 (some centres undefined)
assayedTarget: A673/TR/shEF
cell viability (log2): 0.0603
//
compound: COc1cc2ccc(=O)oc2c2ccoc12
assayedTarget: A673/TR/shEF
cell viability (log2): 0.222
//
compound: O=c1cccc2n1CC1CC2CN2CCCCC12 (centres undefined)
assayedTarget: A673/TR/shEF
cell viability (log2): 0.16
//
compound: CCC(=O)C(CC(C)N1CCOCC1)(c1ccccc1)c1ccccc1 (centres undefined)
assayedTarget: A673/TR/shEF
cell viability (log2): 0.0298
//
compound: COC(=O)[C@]1(C)CC[C@]2(C)CC[C@]3(C)C4=CCc5c(cc(O)c(O)c5C)[C@]4(C)CC[C@@]3(C)[C@@H]2C1
assayedTarget: A673/TR/shEF
cell viability (log2): 0.0264
//
compound: O=c1cccc2n1C[C@@H]1CNC[C@H]2C1
assayedTarget: A673/TR/shEF
cell viability (log2): 0.0148
//
compound: CCOP(=S)(OCC)SCSCC
assayedTarget: A673/TR/shEF
cell viability (log2): 0.102
//
compound: C=C1C([C@]2(C)C(CC(=O)OC)[C@@](C)(COC(C)=O)OC(=O)C[C@@H]2OC(C)=O)[C@@H](OC=O)[C@H](OC(=O)C(OC(C)=O)C(C)CC)[C@@]2(C)[C@H](c3ccoc3)CC(=O)C12O (some centres undefined)
assayedTarget: A673/TR/shEF
cell viability (log2): 0.0373
//
compound: CC(Cc1ccc(O)cc1)NCC(O)c1cc(O)cc(O)c1 (centres undefined)
assayedTarget: A673/TR/shEF
cell viability (log2): 0.143
//
compound: COc1ccc([C@H]2Oc3c(I)c(OC)cc(OC)c3C[C@@H]2O)cc1OC
assayedTarget: A673/TR/shEF
cell viability (log2): -0.0318
//
compound: COc1cc2c3cc1Oc1cc(ccc1O)C[C@H]1c4c(cc(OC)c(O)c4Oc4ccc(cc4)C[C@@H]3N(C)CC2)CCN1C
assayedTarget: A673/TR/shEF
cell viability (log2): 0.0853
//
compound: CC1(C)C2C[C@@H](O)[C@]3(C)C(CC[C@@]4(C)[C@H](c5ccoc5)CC5OC543)[C@@]2(C)[C@@H](O)C[C@H]1O (some centres undefined)
assayedTarget: A673/TR/shEF
cell viability (log2): 0.0938
//
compound: CC(=O)O[C@@H]1CC[C@@]2(C)[C@@H](CC[C@@H]3[C@@H]2CC[C@]2(C)C(=O)CC[C@@H]32)C1
assayedTarget: A673/TR/shEF
cell viability (log2): 0.0923
//
compound: COP(=S)(OC)SCn1nnc2ccccc2c1=O
assayedTarget: A673/TR/shEF
cell viability (log2): -0.0615
//
compound: CCCC1CCCCN1 (centres undefined)
assayedTarget: A673/TR/shEF
cell viability (log2): 0.115
//
compound: COc1ccc2c3c1O[C@H]1[C@@H](O)CCC4[C@@H](C2)N(C)CC[C@@]341 (some centres undefined)
assayedTarget: A673/TR/shEF
cell viability (log2): 0.0725
//
compound: O=C(O)CCCc1ccc(N(CCCl)CCCl)cc1
assayedTarget: A673/TR/shEF
cell viability (log2): 0.0971
//
compound: c1ccc2c(c1)sc1ccccc12
assayedTarget: A673/TR/shEF
cell viability (log2): 0.0739
//
compound: CCOP(=S)(OCC)SCSP(=S)(OCC)OCC
assayedTarget: A673/TR/shEF
cell viability (log2): 0.0176

----------
# System: A673/TR/shEF
# methodSummary: cell viability (LOESS-normalised, relative to median of negative controls) (log2 ratio); higher = more viable cells (less compound effect), active = hit call of the paper (over 3 MAD below the median)
# studyConditions: 0.25 µM; library screen: screen2; EWS-FLI1 expression: high (no doxycycline); treatment time: 72 h
Out of some 3,200 compounds screened, about 300 (9.4%) showed activity. This is one part of a sample in which actives are shown more often than they occur.
Outcomes: y = active, n = inactive

compound: O=C1NCN(c2ccccc2)C12CCN(CC1COc3ccccc3O1)CC2 (stereo not given)
assayedTarget: A673/TR/shEF
labelClass: n
--
compound: NS(=O)(=O)c1ccc2c(c1)CNCC2
assayedTarget: A673/TR/shEF
labelClass: n
--
compound: CN1C2CCC1CC(OC(=O)C(CO)c1ccccc1)C2 (stereo not given)
assayedTarget: A673/TR/shEF
labelClass: n
--
compound: CN1[C@H]2CC(OC(=O)C(CO)c3ccccc3)C[C@H]1[C@H]1O[C@H]12 (stereo not given in full)
assayedTarget: A673/TR/shEF
labelClass: n
--
compound: Oc1ccc2c3c1O[C@H]1c4[nH]c5ccccc5c4C[C@@]4(O)C(C2)N(CC2CC2)CCC314 (stereo not given in full)
assayedTarget: A673/TR/shEF
labelClass: n
--
compound: NC(CCP(=O)(O)O)C(=O)O (stereo not given)
assayedTarget: A673/TR/shEF
labelClass: n
--
compound: CCNC(=O)[C@H]1O[C@@H](n2cnc3c(N)ncnc32)[C@H](O)[C@@H]1O
assayedTarget: A673/TR/shEF
labelClass: n
--
compound: Cc1c2ccncc2c(C)c2c1[nH]c1ccccc12
assayedTarget: A673/TR/shEF
labelClass: n
--
compound: CCCN1CCCC2Cc3[nH]ncc3CC21 (stereo not given)
assayedTarget: A673/TR/shEF
labelClass: n
--
compound: C[C@@H]1O[C@@H](O[C@H]2C[C@@H](O)[C@]3(CO)[C@H]4[C@H](O)C[C@]5(C)[C@@H](C6=CC(=O)OC6)CC[C@]5(O)[C@@H]4CC[C@]3(O)C2)[C@H](O)[C@H](O)[C@H]1O
assayedTarget: A673/TR/shEF
labelClass: y
